All figures here come from ChEMBL document CHEMBL3232894.

# System tested: Cyclin-dependent kinase 4/cyclin D1 (Homo sapiens)
# Sequence (P11802 whole entry): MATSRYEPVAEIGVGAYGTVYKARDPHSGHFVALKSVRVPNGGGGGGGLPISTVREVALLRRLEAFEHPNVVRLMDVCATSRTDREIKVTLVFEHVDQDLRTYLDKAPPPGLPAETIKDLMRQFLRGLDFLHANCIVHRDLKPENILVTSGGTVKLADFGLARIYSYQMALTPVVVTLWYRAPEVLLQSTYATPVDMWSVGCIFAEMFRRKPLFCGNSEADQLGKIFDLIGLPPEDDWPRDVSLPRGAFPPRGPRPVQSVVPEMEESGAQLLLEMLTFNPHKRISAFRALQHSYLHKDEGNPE
# Sequence (P24385 whole entry, further chain): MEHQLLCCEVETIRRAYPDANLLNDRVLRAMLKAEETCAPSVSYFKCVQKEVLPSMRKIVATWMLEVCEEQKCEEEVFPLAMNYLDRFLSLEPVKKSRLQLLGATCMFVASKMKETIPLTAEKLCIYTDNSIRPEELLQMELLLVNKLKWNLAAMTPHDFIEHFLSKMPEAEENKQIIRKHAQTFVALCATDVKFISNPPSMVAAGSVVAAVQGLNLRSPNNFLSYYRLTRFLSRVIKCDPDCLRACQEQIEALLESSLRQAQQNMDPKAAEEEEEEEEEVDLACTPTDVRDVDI
# Test protocol: Inhibition of CDK4/cyclin D1 (unknown origin) using Rb as substrate after 60 mins by scintillation counting analysis in presence of [r-33P]ATP

{"Compound": "C[C@H]1CC[C@H](n2c3cnccc3c3cnc(Nc4ccc(N5CCN(C(=O)CO)CC5)nn4)nc32)CC1", "IC50 (nM)": 3}
{"Compound": "CC1CCC(n2c3cnccc3c3cnc(Nc4ccc(N5CCNCC5)cn4)nc32)CC1 (mixture of isomers)", "IC50 (nM)": 1}
{"Compound": "CC1(C)CCCC(n2c3cnccc3c3cnc(Nc4ccc(N5CCNCC5)cn4)nc32)C1 (centres undefined)", "IC50 (nM)": 3}
{"Compound": "c1cc2c3cnc(Nc4ccc(N5CCNCC5)cn4)nc3n(C3CCCC3)c2cn1", "IC50 (nM)": 3}
